Here the recorded IC50 is given for each entry.
- target-or-system: BKB1 receptors (Homo sapiens, UniProt P46663)
- Construct: Human (IMR-90) lung fibroblast cells expressing native B1 receptors; endogenous in cells
- protocol-notes: Calcium mobilization assay (FLIPR), B1 receptors in IMR-90 cells
- stated-conditions: Human IMR-90 lung fibroblast cells, up-regulated BKB1 receptors, agonist desArg10-kallidin (DAKD) 2 to 8 nM, calcium-dependent fluorescence
Value expressed in µM; do not type the unit.

Worked examples, 3 molecules total:
CC(C(=O)Nc1cnccn1)c1ccc(N2CCCCC2)cc1 (centres unmarked) | 4.37
CC(C(N)=O)c1ccc(Nc2ccc3c(c2)OC(F)(F)O3)cc1 (centres unmarked) | 1.35
Cc1ccc(OCC(O)CNC(=O)C(C)c2ccc(Nc3nc(C(F)(F)F)co3)cc2)cc1C (centres unmarked) | 8.32

Q) # query: IC50 of entry CC(C(=O)Nc1cnccn1)c1ccc(Oc2ccc(F)cc2)cc1 (centres unmarked)
A) 1.2

Q) # query: IC50 of entry Cc1ccc(OCC(O)CNC(=O)C(C)c2ccc(OS(=O)(=O)C(F)(F)F)cc2)cc1C (centres unmarked)
A) 11.5

----------
- target-or-system: BKB1 receptors (Homo sapiens, UniProt P46663)
- Construct: Human (IMR-90) lung fibroblast cells expressing native B1 receptors; endogenous in cells
- protocol-notes: Calcium mobilization assay (FLIPR), B1 receptors in IMR-90 cells
- stated-conditions: Human IMR-90 lung fibroblast cells, up-regulated BKB1 receptors, agonist desArg10-kallidin (DAKD) 2 to 8 nM, calcium-dependent fluorescence
measurement-kind: IC50 (µM)
Value expressed in µM; do not type the unit.

Worked examples, 4 compounds total:
CC(C(=O)Nc1ccncn1)c1ccc(N2CCCCC2)cc1 (centres unmarked) | 14.1
CC(C(=O)NCCCN(C)C)c1ccc(Oc2cccc3ccccc23)cc1 (centres unmarked) | 3.8
CC(C(=O)Nc1ccncc1)c1ccc(OS(=O)(=O)C(F)(F)F)cc1 (centres unmarked) | 3.24
COc1cccc(CN(C)CCNC(=O)C(C)c2ccc(NS(=O)(=O)C(C)C)cc2)c1 (centres unmarked) | 8.13

Okay, now this compound:
Q) # query: IC50 of entry CC(F)(C(=O)Nc1ccsc1S(N)(=O)=O)c1cccc(Nc2nc(C(F)(F)F)cs2)c1 (centres unmarked)
A) 4.27

----------
- target-or-system: BKB1 receptors (Homo sapiens, UniProt P46663)
- Construct: Human (IMR-90) lung fibroblast cells expressing native B1 receptors; endogenous in cells
- Sequence (P46663 1-353): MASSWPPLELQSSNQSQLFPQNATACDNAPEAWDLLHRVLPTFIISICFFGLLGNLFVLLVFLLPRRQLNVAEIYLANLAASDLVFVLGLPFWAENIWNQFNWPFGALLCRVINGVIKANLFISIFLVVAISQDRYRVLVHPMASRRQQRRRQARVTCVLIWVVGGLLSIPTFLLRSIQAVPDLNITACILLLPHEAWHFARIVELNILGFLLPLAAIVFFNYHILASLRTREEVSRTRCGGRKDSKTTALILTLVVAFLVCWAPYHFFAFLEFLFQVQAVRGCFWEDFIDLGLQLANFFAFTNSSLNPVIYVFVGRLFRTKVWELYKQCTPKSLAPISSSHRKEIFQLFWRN
- protocol-notes: Calcium mobilization assay (FLIPR), B1 receptors in IMR-90 cells
- stated-conditions: Human IMR-90 lung fibroblast cells, up-regulated BKB1 receptors, agonist desArg10-kallidin (DAKD) 2 to 8 nM, calcium-dependent fluorescence
- Protocol: Calcium mobilization assay (FLIPR)—Human (IMR-90) lung fibroblast cells expressing native B1 receptors were harvested by trypsinization and seeded into black wall/clear bottom 96-well plates (Costar 3904; Corning Life Sciences, Acton, Mass.) at approximately 13,000 cells/well. After 1 day incubation, cells were treated with […] (0.35 ng/ml) in 10% FBS/MEM for 2 h to up-regulate BKB1 receptors. […]
measurement-kind: pIC50
// scale note: pIC50 = -log10(conc_M); give the bare number

COc1cc(Nc2cccc(C(C)C(=O)NNC(=O)c3ccco3)c2)cc(C(F)(F)F)c1 (centres unmarked) | 5.07
CC(C(=O)NC(c1ccco1)N1CCOCC1)c1ccc(Nc2nc(C(F)(F)F)cs2)cc1 (centres unmarked) | 4.89

Q) # query: pIC50 of entry COc1cccc(Nc2ccc(C(C)C(=O)Nc3cc(C)nn3C)cc2)c1 (centres unmarked)
A) 5.10

Q) # query: pIC50 of entry CCNC(=O)C(C)c1cccc(Nc2cc(OC)cc(C(F)(F)F)c2)c1 (centres unmarked)
A) 5.11

Q) # query: pIC50 of entry CC(C(=O)Nc1nccs1)c1cccc(C(=O)c2ccccc2)c1 (centres unmarked)
A) 4.99

Data credit: patent US20120316169A1
